# study-system: human CCR6 (Homo sapiens)
# Construct: expressed in transfected cells; host or cells: HEK-293
# assay-protocol: FLIPR assay (inhibition of CCL20-induced calcium signal)
# Format: cell-based
# condition: HEK-293 cells expressing human CCR6; mean values where determined several times; read-out: FLIPR IC50
test-readout: IC50 (nM)
Give just the number in nM; leave the unit off.

compound: CN1CC(C)([C@](O)(c2ccc(C3CC3)cc2)c2cncc(-c3nc(C45CC(CO)(C4)C5)no3)c2)C1
unit-string: nM
IC50: 130
//
compound: CN1CC(C)([C@](O)(c2ccc(C(C)(C)C(F)(F)F)cc2)c2cncc(-c3noc(C(C)(C)O)n3)c2)C1
unit-string: nM
IC50: 331
//
compound: Cc1nccc(C(C)(O)CCc2cncc([C@@](O)(c3ccc(C(C)C)cc3)C3(C)CN(C)C3)c2)n1 (stereo partly shown)
unit-string: nM
IC50: 110
//
compound: CN1CC(C)([C@](O)(c2ccc(C(C)(C)C)cc2)c2cncc(N3CCCCC3)c2)C1
unit-string: nM
IC50: 23.4
//
compound: CCCc1ccc([C@](O)(c2cncc(-c3nc(C4CCOCC4)no3)c2)C2(C)CN(C)C2)cc1
unit-string: nM
IC50: 75.3
//
compound: CCC(O)(C#Cc1cncc([C@@](O)(c2ccc(C(C)C)cc2)C2(C)CN(C)C2)c1)c1ccccn1 (stereo partly shown)
unit-string: nM
IC50: 63.3

// moving on: another record for IC50
Query string: Find IC50 (human CCR6 (Homo sapiens)) for the entry CC(=O)N1CCC(c2nc(-c3cncc([C@@](O)(c4ccc(Br)cc4)C4(C)CN(C)C4)c3)no2)CC1
Result string: 776

====

# study-system: human CCR6 (Homo sapiens, UniProt P51684)
# Construct: expressed in transfected cells; host or cells: HEK-293
# Sequence (P51684 whole entry): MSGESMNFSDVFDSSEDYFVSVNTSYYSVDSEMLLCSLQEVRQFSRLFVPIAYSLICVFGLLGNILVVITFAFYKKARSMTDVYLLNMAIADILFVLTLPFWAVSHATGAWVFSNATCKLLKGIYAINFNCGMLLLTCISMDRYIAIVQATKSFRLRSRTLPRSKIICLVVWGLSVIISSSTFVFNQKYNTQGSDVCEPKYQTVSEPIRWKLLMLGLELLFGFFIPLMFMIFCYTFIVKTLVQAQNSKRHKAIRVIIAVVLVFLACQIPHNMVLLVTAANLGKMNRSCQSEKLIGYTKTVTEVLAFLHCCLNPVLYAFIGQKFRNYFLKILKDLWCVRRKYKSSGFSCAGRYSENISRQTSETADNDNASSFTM
# assay-protocol: FLIPR assay (inhibition of CCL20-induced calcium signal)
# Assay type: cell-based
# condition: HEK-293 cells expressing human CCR6; mean values where determined several times; read-out: FLIPR IC50
Lab note: compare IC50 with 90 nM, writing met if less and not met if equal or more.

Query string: Strictly below 90 nM: is that where IC50 of CC(C)c1ccc([C@](O)(c2cncc(C#CC(C)(C)S(=O)(=O)C3CC3)c2)C2(C)CN(C)C2)cc1 sits?
Result string: met

Query string: Regarding CC(C)c1ccc([C@](O)(c2cncc(CCC(C)(O)c3ccn(C)n3)c2)C2(C)CN(C)C2)cc1 (stereo partly shown) , kindly confirm whether its IC50 is beneath 90 nM.
Result string: not met

Query string: Here's an entry: Cc1cc(C(O)C#Cc2cncc([C@@](O)(c3ccc(C(C)C)cc3)C3(C)CN(C)C3)c2)nn1C (stereo partly shown) . Is its IC50 below 90 nM?
Result string: not met

Query string: Does this molecule meet the criterion IC50 < 90 nM? CCc1ccc([C@](O)(c2cncc(C#CC(C)(O)c3cccc(C)n3)c2)C2(C)CN(C)C2)cc1 (stereo partly shown)
Result string: met

Query string: Please determine if CC(C)c1c(F)cc([C@](O)(c2cncc(-c3noc(C(C)(C)O)n3)c2)C2(C)CN(C)C2)cc1F is below 90 nM in terms of IC50.
Result string: met

Query string: Field: below-cutoff. Rule: recorded IC50 strictly less than 90 nM. Subject: CC(C)c1ccc([C@](O)(c2cncc(-c3noc(CNC(=O)CO)n3)c2)C2(C)CN(C)C2)cc1
Result string: not met
